# Target Or System: porcine liver CES (Sus scrofa, UniProt Q29550)
# Sequence (Q29550 19-566): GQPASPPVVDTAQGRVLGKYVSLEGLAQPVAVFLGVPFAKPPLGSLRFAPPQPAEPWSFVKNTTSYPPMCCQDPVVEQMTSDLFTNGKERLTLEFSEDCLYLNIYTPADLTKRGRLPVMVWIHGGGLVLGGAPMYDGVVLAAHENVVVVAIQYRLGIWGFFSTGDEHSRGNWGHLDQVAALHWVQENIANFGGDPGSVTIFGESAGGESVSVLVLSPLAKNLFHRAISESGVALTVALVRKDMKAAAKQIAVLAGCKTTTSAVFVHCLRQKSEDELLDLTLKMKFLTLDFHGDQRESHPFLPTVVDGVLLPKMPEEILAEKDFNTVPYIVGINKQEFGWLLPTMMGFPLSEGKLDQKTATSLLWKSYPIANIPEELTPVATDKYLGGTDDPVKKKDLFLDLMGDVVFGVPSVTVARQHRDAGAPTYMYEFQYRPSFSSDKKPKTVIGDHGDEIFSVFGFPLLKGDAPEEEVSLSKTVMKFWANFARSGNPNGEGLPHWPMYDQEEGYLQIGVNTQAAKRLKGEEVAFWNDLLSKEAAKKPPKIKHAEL
# Assay Remarks: CES inhibition, 4-nitrophenyl acetate hydrolysis
# Assay type: biochemical
# Reported Conditions: read-out: % of inhibition of CES with 20 µM concentration of the compound
I'd appreciate it if you could supply inhibition at 20 µM values for the items below.
One number for each entry, in %.

Some solved entries appear below for comparison.
CN1CCc2c(c3ccccc3n2CC(=O)NC23CC4CC(CC(C4)C2)C3)C1.Cl [Compound 8d]
8.8
CN1CCc2c(c3ccccc3n2CC(=O)NC23CC4CC(C)(CC(C)(C4)C2)C3)C1 [Compound 8a]
5.2
Cc1ccc2c(c1)c1c(n2CCNC23CC4CC(CC(C4)C2)C3)CCN(C)C1.Cl.Cl [Compound 4e]
2.5
Cc1ccc2c(c1)c1c(n2CC(=O)NC23CC4CC(CC(C4)C2)C3)CCN(C)C1.Cl [Compound 8e]
9.9
CN1CCc2c(c3cc(F)ccc3n2CCNC23CC4CC(CC(C4)C2)C3)C1.Cl.Cl [Compound 4f]
8.6

Record inhibition at 20 µM per entry; entries follow.
1. CN1CCc2c(c3cc(F)ccc3n2CC(=O)NC23CC4CC(C)(CC(C)(C4)C2)C3)C1.Cl [Compound 8c]
2. CC12CC3CC(C)(C1)CC(N)(C3)C2 [memantine, reference compound]
3. Cc1ccc2c(c1)c1c(n2CC(=O)NC23CC4CC(C)(CC(C)(C4)C2)C3)CCN(C)C1.Cl [Compound 8b]
4. CN1CCc2c(c3ccccc3n2CCNC23CC4CC(CC(C4)C2)C3)C1.Cl.Cl [Compound 4d]

[out]
8.4
3
6.4
2.9

* * *

# Target Or System: porcine liver CES (Sus scrofa)
# Sequence (Q29550 19-566): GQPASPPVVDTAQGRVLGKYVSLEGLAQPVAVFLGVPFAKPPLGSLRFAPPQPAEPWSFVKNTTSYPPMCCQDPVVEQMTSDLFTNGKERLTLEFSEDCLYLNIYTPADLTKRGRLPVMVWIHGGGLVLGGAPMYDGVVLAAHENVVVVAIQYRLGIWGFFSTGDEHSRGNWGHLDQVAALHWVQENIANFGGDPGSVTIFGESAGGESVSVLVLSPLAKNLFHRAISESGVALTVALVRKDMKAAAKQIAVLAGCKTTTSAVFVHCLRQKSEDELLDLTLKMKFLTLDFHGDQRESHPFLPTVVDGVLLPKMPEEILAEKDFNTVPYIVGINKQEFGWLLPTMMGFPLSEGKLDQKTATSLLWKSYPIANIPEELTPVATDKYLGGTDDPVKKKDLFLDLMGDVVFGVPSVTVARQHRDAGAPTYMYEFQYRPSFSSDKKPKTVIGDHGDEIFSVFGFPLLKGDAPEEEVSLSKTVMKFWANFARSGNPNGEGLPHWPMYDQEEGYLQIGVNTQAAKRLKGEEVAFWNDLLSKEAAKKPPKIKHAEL
Observation Type: pIC50
Numbers only, as −log10 of the molar value.

[in] Using known records, supply pIC50 for O=[N+]([O-])c1ccc(OP(=O)(O)Oc2ccc([N+](=O)[O-])cc2)cc1 [BNPP, bis-4-nitrophenyl phosphate, reference compound]
[out] 5.74

* * *

# Target Or System: porcine liver CES (Sus scrofa)
# Assay Remarks: CES inhibition, 4-nitrophenyl acetate hydrolysis
# Type: biochemical
# Reported Conditions: read-out: % of inhibition of CES with 20 µM concentration of the compound
Observation Type: inhibition at 20 µM (%)
Numbers only, in %.

Some solved entries appear below for comparison.
CN1CCc2c(c3ccccc3n2CCNC23CC4CC(C)(CC(C)(C4)C2)C3)C1.Cl.Cl
15.6
CN1CCc2c(c3cc(F)ccc3n2CC(=O)NC23CC4CC(CC(C4)C2)C3)C1.Cl
6.2
CN1CCc2c(c3cc(F)ccc3n2CCNC23CC4CC(C)(CC(C)(C4)C2)C3)C1.Cl.Cl
6.9

API: the following record is the query input.
[in] Using known records, supply inhibition at 20 µM for `Cc1ccc2c(c1)c1c(n2CCNC23CC4CC(C)(CC(C)(C4)C2)C3)CCN(C)C1.Cl.Cl`
[out] 10.4

* * *

# Target Or System: MK-801-binding (intrachannel) site of NMDA receptor (Rattus norvegicus)
# Assay Remarks: Radioligand binding assay, [3H]MK-801 displacement
Observation Type: pKi
Give bare numbers, as −log10 of the molar value.

Cc1ccc2c(c1)c1c(n2CCNC23CC4CC(C)(CC(C)(C4)C2)C3)CCN(C)C1.Cl.Cl
5.10
Cc1ccc2c(c1)c1c(n2CC(=O)NC23CC4CC(CC(C4)C2)C3)CCN(C)C1.Cl
4.14
CN1CCc2c(c3cc(F)ccc3n2CCNC23CC4CC(CC(C4)C2)C3)C1.Cl.Cl
5.27
CN1CCc2c(c3ccccc3n2CCNC23CC4CC(C)(CC(C)(C4)C2)C3)C1.Cl.Cl
5.72
Cc1ccc2c(c1)c1c(n2CC(=O)NC23CC4CC(C)(CC(C)(C4)C2)C3)CCN(C)C1.Cl
4.26

Record pKi per entry; entries follow.
1. CN1CCc2c(c3cc(F)ccc3n2CC(=O)NC23CC4CC(C)(CC(C)(C4)C2)C3)C1.Cl
2. CN1CCc2c(c3ccccc3n2CC(=O)NC23CC4CC(CC(C4)C2)C3)C1.Cl
3. Cc1ccc2c(c1)c1c(n2CCc2ccc(C)nc2)CCN(C)C1 [dimebon, reference compound]
4. CN1CCc2c(c3ccccc3n2CC(=O)NC23CC4CC(C)(CC(C)(C4)C2)C3)C1

[out]
4.09
4.31
4.30
4.20

Record pKi per entry; entries follow.
1. CN1CCc2c(c3cc(F)ccc3n2CC(=O)NC23CC4CC(CC(C4)C2)C3)C1.Cl
2. CN1CCc2c(c3ccccc3n2CCNC23CC4CC(CC(C4)C2)C3)C1.Cl.Cl
3. CN1CCc2c(c3cc(F)ccc3n2CCNC23CC4CC(C)(CC(C)(C4)C2)C3)C1.Cl.Cl

[out]
1. 4.33
2. 5.48
3. 5.33

[in] Using known records, supply pKi for `Cc1ccc2c(c1)c1c(n2CCNC23CC4CC(CC(C4)C2)C3)CCN(C)C1.Cl.Cl`
[out] 4.99

* * *

# Target Or System: human erythrocyte AChE (Homo sapiens, UniProt P22303)
# Construct: commercial human erythrocyte AChE; purchased Sigma; host or cells: human erythrocytes
# Sequence (P22303 32-617 isoform P22303-2 limits assumed): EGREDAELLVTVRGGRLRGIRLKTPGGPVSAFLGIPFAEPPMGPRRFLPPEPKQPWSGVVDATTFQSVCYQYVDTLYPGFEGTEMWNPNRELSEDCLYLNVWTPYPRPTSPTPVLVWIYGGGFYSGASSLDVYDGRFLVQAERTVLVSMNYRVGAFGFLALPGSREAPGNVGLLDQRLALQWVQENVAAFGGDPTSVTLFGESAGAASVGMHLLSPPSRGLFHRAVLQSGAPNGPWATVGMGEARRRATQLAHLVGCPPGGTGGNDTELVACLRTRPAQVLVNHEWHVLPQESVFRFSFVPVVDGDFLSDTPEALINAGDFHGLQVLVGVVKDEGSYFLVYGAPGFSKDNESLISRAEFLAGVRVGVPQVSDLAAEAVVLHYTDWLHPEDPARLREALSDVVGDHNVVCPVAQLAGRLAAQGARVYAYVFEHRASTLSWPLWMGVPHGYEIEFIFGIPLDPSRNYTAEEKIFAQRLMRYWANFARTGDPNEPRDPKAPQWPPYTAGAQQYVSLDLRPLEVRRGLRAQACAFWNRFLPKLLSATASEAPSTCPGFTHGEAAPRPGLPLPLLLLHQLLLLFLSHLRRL
# Assay Remarks: biochemical
# Reported Conditions: read-out: % of inhibition of AChE with 20 µM concentration of the compound; 20 µM compound; mean ± SEM, n = 3
I'd appreciate it if you could supply inhibition at 20 µM values for the items below.
Give bare numbers, in %.

Some solved entries appear below for comparison.
CN1CCc2c(c3ccccc3n2CCNC23CC4CC(C)(CC(C)(C4)C2)C3)C1.Cl.Cl
19.5
CN1CCc2c(c3ccccc3n2CC(=O)NC23CC4CC(CC(C4)C2)C3)C1.Cl
5.4
CN1CCc2c(c3ccccc3n2CC(=O)NC23CC4CC(C)(CC(C)(C4)C2)C3)C1
7.1
Cc1ccc2c(c1)c1c(n2CC(=O)NC23CC4CC(C)(CC(C)(C4)C2)C3)CCN(C)C1.Cl
17.7
CN1CCc2c(c3cc(F)ccc3n2CC(=O)NC23CC4CC(C)(CC(C)(C4)C2)C3)C1.Cl
17.3
CC12CC3CC(C)(C1)CC(N)(C3)C2 [memantine, reference compound]
1.3

Record inhibition at 20 µM per entry; entries follow.
1. CN1CCc2c(c3cc(F)ccc3n2CC(=O)NC23CC4CC(CC(C4)C2)C3)C1.Cl
2. Cc1ccc2c(c1)c1c(n2CC(=O)NC23CC4CC(CC(C4)C2)C3)CCN(C)C1.Cl

[out]
1. 22.1
2. 13.5

* * *

# Target Or System: equine serum BChE (Equus caballus)
# Construct: equine serum BChE; purchased Sigma; host or cells: equine serum
# Sequence (P81908 whole entry): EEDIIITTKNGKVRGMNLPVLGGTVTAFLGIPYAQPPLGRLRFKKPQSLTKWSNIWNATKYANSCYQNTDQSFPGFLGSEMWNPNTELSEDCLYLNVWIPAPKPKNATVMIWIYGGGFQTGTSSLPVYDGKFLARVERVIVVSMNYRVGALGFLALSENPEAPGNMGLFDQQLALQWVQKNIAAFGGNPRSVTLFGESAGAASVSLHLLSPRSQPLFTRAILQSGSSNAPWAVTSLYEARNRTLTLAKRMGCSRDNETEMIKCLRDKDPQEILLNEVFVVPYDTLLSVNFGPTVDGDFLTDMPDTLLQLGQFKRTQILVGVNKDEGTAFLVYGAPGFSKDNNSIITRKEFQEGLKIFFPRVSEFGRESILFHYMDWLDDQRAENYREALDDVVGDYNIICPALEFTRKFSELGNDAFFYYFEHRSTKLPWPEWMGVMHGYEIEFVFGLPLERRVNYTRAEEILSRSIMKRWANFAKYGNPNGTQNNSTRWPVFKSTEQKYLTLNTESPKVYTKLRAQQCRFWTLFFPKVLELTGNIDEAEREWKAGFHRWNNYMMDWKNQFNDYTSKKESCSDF
# Assay Remarks: biochemical
# Reported Conditions: 5 min incubation; mean ± SEM, n = 3
I'd appreciate it if you could supply pIC50 values for the items below.
Numbers only, as −log10 of the molar value.

Cc1ccc2c(c1)c1c(n2CC(=O)NC23CC4CC(C)(CC(C)(C4)C2)C3)CCN(C)C1.Cl
4.47
CN1CCc2c(c3cc(F)ccc3n2CCNC23CC4CC(C)(CC(C)(C4)C2)C3)C1.Cl.Cl
6.14
Cc1ccc2c(c1)c1c(n2CC(=O)NC23CC4CC(CC(C4)C2)C3)CCN(C)C1.Cl
4.36
CN1CCc2c(c3cc(F)ccc3n2CC(=O)NC23CC4CC(C)(CC(C)(C4)C2)C3)C1.Cl
5.22
CN1CCc2c(c3cc(F)ccc3n2CC(=O)NC23CC4CC(CC(C4)C2)C3)C1.Cl
4.77
Cc1ccc2c(c1)c1c(n2CCNC23CC4CC(CC(C4)C2)C3)CCN(C)C1.Cl.Cl
5.04
CN1CCc2c(c3ccccc3n2CC(=O)NC23CC4CC(C)(CC(C)(C4)C2)C3)C1
5.02

API: the following record is the query input.
[in] Using known records, supply pIC50 for `Cc1ccc2c(c1)c1c(n2CCNC23CC4CC(C)(CC(C)(C4)C2)C3)CCN(C)C1.Cl.Cl`
[out] 5.29

The measurements presented in this section are drawn from paper PMC8471380.
